Kindly state 8OG:A repair function score for each of the entries shown.
B1: library; numbered along this chain (parent)
chain: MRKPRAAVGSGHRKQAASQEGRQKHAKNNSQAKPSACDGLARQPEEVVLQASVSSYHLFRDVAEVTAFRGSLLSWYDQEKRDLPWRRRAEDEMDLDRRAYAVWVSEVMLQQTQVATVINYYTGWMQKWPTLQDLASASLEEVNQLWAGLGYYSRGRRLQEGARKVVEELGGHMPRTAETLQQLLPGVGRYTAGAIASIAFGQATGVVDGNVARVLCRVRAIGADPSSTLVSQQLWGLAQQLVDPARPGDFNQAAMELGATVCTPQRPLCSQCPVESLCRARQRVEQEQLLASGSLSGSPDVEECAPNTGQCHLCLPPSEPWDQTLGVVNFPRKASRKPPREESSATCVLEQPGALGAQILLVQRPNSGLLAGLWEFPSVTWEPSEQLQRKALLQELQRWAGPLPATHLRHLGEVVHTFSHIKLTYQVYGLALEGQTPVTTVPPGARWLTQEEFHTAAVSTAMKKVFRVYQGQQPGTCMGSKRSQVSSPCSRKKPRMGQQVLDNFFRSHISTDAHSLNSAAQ

variants of: B1; experiment: 8OG:A repair function score (normalized; synonymous = 0, nonsense = -1) (normalized log-likelihood score); higher = more repair activity (WT-like); conditions: with 8OG:A DNA repair reporter (GFP) in HEK-293 MUTYH KO cells;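 note: cells sorted at 72 h after reporter transfection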
Give bare numbers.

Some variants with recorded 8OG:A repair function score:
   variant_designation            measured_endpoint  numeric_value
0                L149E  8OG:A repair function score          -1.24
1                L370Q  8OG:A repair function score         -0.398
2                T308N  8OG:A repair function score         0.0456

For each listed entry, give its 8OG:A repair function score.
1. Y151R
2. I195V
3. T204I
4. G188K
5. T204Q
6. P383Q

[-0.389, -0.0879, 0.0296, -1.11, -0.045, 0.0121]

For each of the variants below, state 8OG:A repair function score.
1. D91N
2. M93P

-0.0978
-0.0336
